Item-by-item account of microsomal CLint at 50 µM
Experiment: Intrinsic clearance in human liver microsomes at 50 uM up to 45 mins
Format: ADME, Microsome
Conditions: read-out: CLH
READOUT LABEL: microsomal CLint at 50 µM (µL/min/mg)

>>> value_measured("c1ccc([C@@H]([C@H](c2ccccc2)N2CCCCC2)N2CCCCC2)cc1")
17.6
>>> value_measured("c1ccc([C@@H]([C@H](c2ccccc2)N2CCCC2)N2CCCC2)cc1")
21.6
>>> value_measured("c1ccc([C@H]([C@@H](c2ccccc2)N2CCCCC2)N2CCCCC2)cc1")
14.1
>>> value_measured("c1ccc([C@H]([C@@H](c2ccccc2)N2CCCC2)N2CCCC2)cc1")
12

* * *

Molecular target: Cytochrome P450 2D6 (Homo sapiens)
Sequence (P10635 whole entry): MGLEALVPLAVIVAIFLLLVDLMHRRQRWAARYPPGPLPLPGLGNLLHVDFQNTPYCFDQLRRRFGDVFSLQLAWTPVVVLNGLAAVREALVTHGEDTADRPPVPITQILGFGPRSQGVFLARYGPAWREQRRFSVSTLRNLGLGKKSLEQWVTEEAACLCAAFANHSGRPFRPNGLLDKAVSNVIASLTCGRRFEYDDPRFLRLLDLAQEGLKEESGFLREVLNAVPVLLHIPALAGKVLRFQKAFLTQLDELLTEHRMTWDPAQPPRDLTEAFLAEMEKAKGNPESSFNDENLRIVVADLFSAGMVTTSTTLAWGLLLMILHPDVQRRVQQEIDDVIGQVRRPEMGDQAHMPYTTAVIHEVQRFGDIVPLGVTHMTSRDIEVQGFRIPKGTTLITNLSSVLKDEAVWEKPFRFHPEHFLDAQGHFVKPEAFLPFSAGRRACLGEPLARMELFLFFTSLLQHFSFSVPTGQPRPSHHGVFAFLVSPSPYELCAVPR
Assay: Inhibition of human recombinant CYP2D6 expressed in Escherichia coli
Item-by-item account of IC50
READOUT LABEL: IC50

>>> value_measured("c1ccc([C@H]([C@@H](c2ccccc2)N2CCCC2)N2CCCC2)cc1")
"200 nM"
>>> value_measured("c1ccc([C@@H]([C@H](c2ccccc2)N2CCCC2)N2CCCC2)cc1")
"316 nM"
>>> value_measured("c1ccc([C@H]([C@@H](c2ccccc2)N2CCCCC2)N2CCCCC2)cc1")
"126 nM"
>>> value_measured("c1ccc([C@@H]([C@H](c2ccccc2)N2CCCCC2)N2CCCCC2)cc1")
"316 nM"

* * *

Item-by-item account of half-life
Assay: Half life in iv dosed rat
Format: ADME, organism-based
Details: in vivo
READOUT LABEL: half-life (h)

>>> value_measured("c1ccc([C@H]([C@@H](c2ccccc2)N2CCCCC2)N2CCCCC2)cc1")
15.1
>>> value_measured("c1ccc([C@@H]([C@H](c2ccccc2)N2CCCC2)N2CCCC2)cc1")
7.1
>>> value_measured("c1ccc([C@H]([C@@H](c2ccccc2)N2CCCC2)N2CCCC2)cc1")
1

* * *

Test: Volume of distribution at steady state in iv dosed rat
Assay type: ADME, organism-based
Conditions: in vivo, read-out: Vdss
Item-by-item account of Vd
READOUT LABEL: Vd (L/kg)

>>> value_measured("c1ccc([C@H]([C@@H](c2ccccc2)N2CCCC2)N2CCCC2)cc1")
7.9
>>> value_measured("c1ccc([C@@H]([C@H](c2ccccc2)N2CCCC2)N2CCCC2)cc1")
6.4
>>> value_measured("c1ccc([C@H]([C@@H](c2ccccc2)N2CCCCC2)N2CCCCC2)cc1")
16.4

* * *

Experiment: Apparent permeability from apical to basolateral side of human Caco2 cells
Type: ADME, cell-based
Details: Caco-2
READOUT LABEL: Papp A→B (×10⁻⁶ cm/s)

>>> value_measured("c1ccc([C@@H]([C@H](c2ccccc2)N2CCCCC2)N2CCCCC2)cc1")
10.2
>>> value_measured("c1ccc([C@H]([C@@H](c2ccccc2)N2CCCC2)N2CCCC2)cc1")
14
>>> value_measured("c1ccc([C@@H]([C@H](c2ccccc2)N2CCCC2)N2CCCC2)cc1")
13.3
>>> value_measured("c1ccc([C@H]([C@@H](c2ccccc2)N2CCCCC2)N2CCCCC2)cc1")
10.3

* * *

Item-by-item account of solubility at 24 h
Assay: Aqueous solubility of the compound at pH 7.4 after 24 hrs
Type: physicochemical
Details: aqueous medium
READOUT LABEL: solubility at 24 h (µM)

>>> value_measured("c1ccc([C@H]([C@@H](c2ccccc2)N2CCCCC2)N2CCCCC2)cc1")
95
>>> value_measured("c1ccc([C@@H]([C@H](c2ccccc2)N2CCCC2)N2CCCC2)cc1")
100
>>> value_measured("c1ccc([C@H]([C@@H](c2ccccc2)N2CCCC2)N2CCCC2)cc1")
92
>>> value_measured("c1ccc([C@@H]([C@H](c2ccccc2)N2CCCCC2)N2CCCCC2)cc1")
81

Recorded values, source ChEMBL document CHEMBL2150928.
